Provenance of the data: patent US4755598A

- Reported Conditions: mouse, in vivo, po, 100 mg/kg, 120 min
So basically, if AUC comes in under 40000 ng·h/mL it's yes, and if it's 40000 ng·h/mL or more it's no.

Below are worked cases with known answers.
Exam item: In plain terms, does CCOC(=O)OC(C)OC(=O)C1=C(CSc2nnnn2CCN(C)C)CS[C@@H]2[C@H](NC(=O)Cc3csc(N)n3)C(=O)N12 (stereo partly drawn) [Compound A, reference compound] come in under 40000 ng·h/mL for AUC?
Marked response: yes

Exam item: Please state whether AUC is below 40000 ng·h/mL for CCCC(C)OC(=O)OC(C)OC(=O)C1=C(CSc2nnnn2CCN(C)C)CS[C@@H]2[C@H](NC(=O)Cc3csc(N)n3)C(=O)N12 (stereo partly drawn) [Example 8]
Marked response: no

Exam item: Determine if CCCC(C)COC(=O)OC(C)OC(=O)C1=C(CSc2nnnn2CCN(C)C)CS[C@@H]2[C@H](NC(=O)Cc3csc(N)n3)C(=O)N12 (stereo partly drawn) [Example 6] shows AUC strictly lower than 40000 ng·h/mL.
Marked response: yes

Exam item: Confirm or reject: AUC of CC(C)CCOC(=O)OC(C)OC(=O)C1=C(CSc2nnnn2CCN(C)C)CS[C@@H]2[C@H](NC(=O)Cc3csc(N)n3)C(=O)N12 (stereo partly drawn) [Example 2] lies strictly below 40000 ng·h/mL
Marked response: yes

Exam item: Determine whether this compound shows AUC lower than 40000 ng·h/mL (ties excluded): CC(OC(=O)OCC(C)(C)C)OC(=O)C1=C(CSc2nnnn2CCN(C)C)CS[C@@H]2[C@H](NC(=O)Cc3csc(N)n3)C(=O)N12 (stereo partly drawn) [Example 7]
Marked response: yes

Next:
Exam item: Field: below-cutoff. Rule: recorded AUC strictly less than 40000 ng·h/mL. Subject: CCC(CC)COC(=O)OC(C)OC(=O)C1=C(CSc2nnnn2CCN(C)C)CS[C@@H]2[C@H](NC(=O)Cc3csc(N)n3)C(=O)N12 (stereo partly drawn) [Example 4]
Marked response: yes
